Here is a set of compounds with reported pKi for UniProtKB P43405, compiled from the literature.
pKi: −log10 of the molar value.

Below are worked cases with known answers.
1) CS(=O)(=O)Nc1cccc(-c2nc(Nc3ccc4c(c3)NC(=O)CC4)c3[nH]ncc3n2)c1 > 8.00
2) COc1ccc2nc(Nc3ccc4c(c3)n(C)c(=O)n4C)c3n[nH]cc3c2c1 7.00 to 8.00
3) Cc1noc(-c2c[nH]c3ncc(-c4ccc(N5CCN(C)CC5)cc4)cc23)c1-c1cccc(F)c1F 6.00 to 6.70
4) O=C1COc2ccc(Nc3nc(-c4cccc(C(=O)O)c4)nc4cn[nH]c34)cc2N1 7.00 to 8.00
5) CC1(C)CNc2cc(Nc3nc(-c4cccs4)nc4cn[nH]c34)ccc2S1 7.00 to 8.00
6) N#Cc1ccc(Nc2nc(-c3ccccc3)nc3cn[nH]c23)cc1 7.00 to 8.00
7) CN(C)c1ccc(Nc2nc(-c3ccc(N4CCCC4)nc3)nc3cn[nH]c23)cc1 > 8.00
8) COc1ccc2nc(Nc3ccc(-n4nccn4)cc3)c3n[nH]cc3c2c1 6.00 to 7.00

Now let's try a different one.
Any idea what pKi came out for COc1ccc2nc(Nc3ccc(N4CCCCC4)cc3)c3n[nH]cc3c2c1 on UniProtKB P43405?
7.00 to 8.00

====

pKi: −log10 of the molar value.
Here is a set of compounds with reported pKi for SYK kinase (Homo sapiens, UniProt P43405), compiled from the literature.

1. COc1ccc2nc(Nc3cc(-c4ccccc4)n[nH]3)c3n[nH]cc3c2c1 7.00 to 8.00
2. COc1ccc(Nc2nc(-c3ccc(F)c(F)c3)nc3cn[nH]c23)cc1OC 6.00 to 7.00
3. CC(=O)Nc1cccc(-c2cnc3[nH]cc(-c4oncc4-c4cccc(F)c4F)c3c2)c1 4.90 to 6.00

Any idea what pKi came out for c1ccc(-c2nc(Nc3ccc4cn[nH]c4c3)c3[nH]ncc3n2)cc1 on SYK kinase (Homo sapiens, UniProt P43405)?
> 8.00

Any idea what pKi came out for O=C1CCc2ccc(Nc3nc(-c4cccc(-c5nn[nH]n5)c4)nc4cn[nH]c34)cc2N1 on SYK kinase (Homo sapiens, UniProt P43405)?
> 8.00

====

pKi: −log10 of the molar value.
Here is a set of molecules with reported pKi for SYK kinase (Homo sapiens), compiled from the literature.

Below are worked cases with known answers.
1) c1ccc(-c2nc(Nc3ccc4[nH]nnc4c3)c3[nH]ncc3n2)cc1 > 8.00
2) Fc1cccc(-c2nc(Nc3ccc(N4CCOCC4)cc3)c3[nH]ncc3n2)c1 > 8.00
3) c1csc(-c2nc(Nc3ccc4c(c3)COC4)c3[nH]ncc3n2)c1 > 8.00
4) COc1ccc(Nc2nc(-c3cccs3)nc3cn[nH]c23)cc1OC > 8.00

Entry CN1CCC(c2nc(Nc3ccc4c(c3)NC(=O)CO4)c3[nH]ncc3n2)CC1 has what pKi?
> 8.00

Entry COc1ccc2nc(Nc3ccc(C(=O)N(C)CCN(C)C)cc3)c3n[nH]cc3c2c1 has what pKi?
7.00 to 8.00

Entry CN1CCN(c2ccc(Nc3nc(-c4cccc(S(N)(=O)=O)c4)nc4cn[nH]c34)cc2)CC1 has what pKi?
> 8.00

Entry CN1CCN(c2ccc(-c3cnc4[nH]cc(-c5oncc5-c5cccc(F)c5F)c4c3)cn2)CC1 has what pKi?
4.90 to 6.00
